- TARGET: human full-length MKNK1 (Homo sapiens (Human), UniProt Q9BUB5, T344D)
- Sequence (Q9BUB5 other isoform, or with tags, fused parts or gaps T344D): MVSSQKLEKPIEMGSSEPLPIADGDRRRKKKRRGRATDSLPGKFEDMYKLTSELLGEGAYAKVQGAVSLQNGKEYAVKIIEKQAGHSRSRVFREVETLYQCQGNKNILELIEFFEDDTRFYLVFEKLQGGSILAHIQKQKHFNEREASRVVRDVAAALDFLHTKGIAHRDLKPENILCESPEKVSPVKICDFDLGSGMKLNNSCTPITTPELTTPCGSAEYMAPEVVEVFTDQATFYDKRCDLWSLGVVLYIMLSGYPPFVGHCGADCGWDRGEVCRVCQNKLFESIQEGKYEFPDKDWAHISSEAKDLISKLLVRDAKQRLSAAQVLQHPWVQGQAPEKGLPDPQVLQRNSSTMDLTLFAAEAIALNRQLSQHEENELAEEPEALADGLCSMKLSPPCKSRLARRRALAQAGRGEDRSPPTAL
- TEST_DESCRIPTION: MKNK1 kinase assay (TR-FRET, 10 μM ATP)
- Format: biochemical
- RUN_PARAMETERS: 15 min preincubation, GST-MKNK1 (T344D)
REPORTED_METRIC: IC50 (nM)

- MOL_SMILES: "C[C@H](CO)NC(=O)c1ccc2ncc(-c3cc4ccccc4o3)n2n1"
  NUMERIC_VALUE: 4.1
- MOL_SMILES: "CN(C)CCCNC(=O)c1ccc2ncc(-c3cc4ccccc4o3)n2n1"
  NUMERIC_VALUE: 3.3
- MOL_SMILES: "CN(C)CCN(C)C(=O)c1ccc2ncc(-c3cc4c(N5CCOCC5)nccc4o3)n2n1"
  NUMERIC_VALUE: 88
- MOL_SMILES: "CC(C)[C@@H](CO)NC(=O)c1ccc2ncc(-c3cc4ccccc4o3)n2n1"
  NUMERIC_VALUE: 1.3
- MOL_SMILES: "CN(C)CCNC(=O)c1ccc2ncc(-c3cc4ccccc4o3)n2n1"
  NUMERIC_VALUE: 1.7
- MOL_SMILES: "CN1CCN(C(=O)c2ccc3ncc(-c4cc5c(N6CCOCC6)nccc5o4)n3n2)CC1"
  NUMERIC_VALUE: 110
- MOL_SMILES: "CC(C)[C@H](CO)NC(=O)c1ccc2ncc(-c3cc4ccccc4o3)n2n1"
  NUMERIC_VALUE: 6.8
- MOL_SMILES: "O=C(NCc1ccccc1)c1ccc2ncc(-c3cc4ccccc4o3)n2n1"
  NUMERIC_VALUE: 5.2
- MOL_SMILES: "COCCNC(=O)c1ccc2ncc(-c3cc4ccccc4o3)n2n1"
  NUMERIC_VALUE: 8
- MOL_SMILES: "COCCCNC(=O)c1ccc2ncc(-c3cc4ccccc4o3)n2n1"
  NUMERIC_VALUE: 4.9
- MOL_SMILES: "CN(Cc1ccccc1)C(=O)c1ccc2ncc(-c3cc4ccccc4o3)n2n1"
  NUMERIC_VALUE: 8.8

====

- TARGET: human full-length MKNK1 (Homo sapiens (Human), UniProt Q9BUB5, T344D)
- TEST_DESCRIPTION: MKNK1 kinase high ATP assay (TR-FRET, 2 mM ATP)
- Format: biochemical
- RUN_PARAMETERS: 15 min preincubation, GST-MKNK1 (T344D)
Strictly below 30 nM in IC50: condition met. Otherwise: condition not met.

- MOL_SMILES: "CN(C)CCN(C)C(=O)c1ccc2ncc(-c3cc4c(N5CCOCC5)nccc4o3)n2n1"
  TARGET: "human full-length MKNK1 (Homo sapiens (Human), UniProt Q9BUB5, T344D)"
  CLASS_LABEL: "condition not met"
- MOL_SMILES: "C[C@H](CO)NC(=O)c1ccc2ncc(-c3cc4ccccc4o3)n2n1"
  TARGET: "human full-length MKNK1 (Homo sapiens (Human), UniProt Q9BUB5, T344D)"
  CLASS_LABEL: "condition met"
- MOL_SMILES: "COCCNC(=O)c1ccc2ncc(-c3cc4ccccc4o3)n2n1"
  TARGET: "human full-length MKNK1 (Homo sapiens (Human), UniProt Q9BUB5, T344D)"
  CLASS_LABEL: "condition met"
- MOL_SMILES: "CC(C)[C@H](CO)NC(=O)c1ccc2ncc(-c3cc4ccccc4o3)n2n1"
  TARGET: "human full-length MKNK1 (Homo sapiens (Human), UniProt Q9BUB5, T344D)"
  CLASS_LABEL: "condition met"
- MOL_SMILES: "CN(C)CCNC(=O)c1ccc2ncc(-c3cc4ccccc4o3)n2n1"
  TARGET: "human full-length MKNK1 (Homo sapiens (Human), UniProt Q9BUB5, T344D)"
  CLASS_LABEL: "condition not met"
- MOL_SMILES: "CC(C)[C@@H](CO)NC(=O)c1ccc2ncc(-c3cc4ccccc4o3)n2n1"
  TARGET: "human full-length MKNK1 (Homo sapiens (Human), UniProt Q9BUB5, T344D)"
  CLASS_LABEL: "condition not met"
- MOL_SMILES: "CN(Cc1ccccc1)C(=O)c1ccc2ncc(-c3cc4ccccc4o3)n2n1"
  TARGET: "human full-length MKNK1 (Homo sapiens (Human), UniProt Q9BUB5, T344D)"
  CLASS_LABEL: "condition met"
- MOL_SMILES: "CN(C)CCCNC(=O)c1ccc2ncc(-c3cc4ccccc4o3)n2n1"
  TARGET: "human full-length MKNK1 (Homo sapiens (Human), UniProt Q9BUB5, T344D)"
  CLASS_LABEL: "condition met"
- MOL_SMILES: "O=C(NCc1ccccc1)c1ccc2ncc(-c3cc4ccccc4o3)n2n1"
  TARGET: "human full-length MKNK1 (Homo sapiens (Human), UniProt Q9BUB5, T344D)"
  CLASS_LABEL: "condition met"
- MOL_SMILES: "CN1CCN(C(=O)c2ccc3ncc(-c4cc5c(N6CCOCC6)nccc5o4)n3n2)CC1"
  TARGET: "human full-length MKNK1 (Homo sapiens (Human), UniProt Q9BUB5, T344D)"
  CLASS_LABEL: "condition not met"
- MOL_SMILES: "COCCCNC(=O)c1ccc2ncc(-c3cc4ccccc4o3)n2n1"
  TARGET: "human full-length MKNK1 (Homo sapiens (Human), UniProt Q9BUB5, T344D)"
  CLASS_LABEL: "condition met"

Values from patent US10214545B2
